experiment: UV absorption properties (λmax, molar extinction coefficient ε, efficiency E 1%, 1 cm); format: physicochemical; conditions: Table 6A
Lab note: compare E (1%, 1 cm) with 500, writing met if less and not met if equal or more.

Completed entries (count: 6):
[Q] Please state whether E (1%, 1 cm) is below 500 for CC(C)CN1C=C(C(=O)c2ccc(C(=O)c3ccccc3)cc2)C(C)(C)CC1 [drawing 90]
[A] met

[Q] Decide: E (1%, 1 cm) of CC(C)CN1C=C(C(=O)c2ccc(N(C)C)cc2)C(C)(C)CC1 [drawing 83] strictly below 500?
[A] not met

[Q] Regarding CC(C)CN1C=C(C(=O)c2ccc(Br)cc2)C(C)(C)CC1 [drawing 84] , kindly confirm whether its E (1%, 1 cm) is beneath 500.
[A] not met

[Q] API: query returns whether the compound falls strictly under 500 in E (1%, 1 cm). Query: COc1ccc(C(=O)C2=CN(CC(C)C)CCC2(C)C)c(OC)c1 [drawing 91]
[A] met

[Q] Is it true that E (1%, 1 cm) reported for CC(C)CN1C=C(C(=O)c2ccccc2)C(C)(C)CC1 [drawing 87] is less than 500?
[A] not met

[Q] Lab log: compare recorded E (1%, 1 cm) with 500; is it strictly lower for CC(C)CN1C=C(C(=O)c2ccc(C(=O)C3=CN(CC(C)C)CCC3(C)C)cc2)C(C)(C)CC1 [drawing 88] ?
[A] not met

Switching to the query record.
[Q] Hi there! Is E (1%, 1 cm) for CC(C)CN1C=C(C(=O)c2ccc3c(c2)CCO3)C(C)(C)CC1 [drawing 85] below 500, do you know?
[A] not met
